Source listed as the nanobody polyreactivity screen of Harvey et al. (2022).

- assay_text: yeast display, Sf9 membrane polyspecificity reagent, FACS + sequencing; frameworks hold sequencing errors
attribute_measured: polyreactivity (PSR sort gate)

QVQLVESGGGLVQAGGSLRLICAASGFIIRYYAMGWYRQAPGKERELVAVISASGGSTYYADSVKGRFTISRDNAKNTVYLQMNSLKPEDTAVYYCNTKRYFFHRGDMDYWGQGTQVTVSS	high polyreactivity
QVQLVESGGGLVQAGGSLRLSCAASGRIFYRYAMGWYRQAPGKERELVAAIRSGGRTNYADSVKGRFTISRDNAKNTVYLQMNSLKPEDTAVYYCNAVWRYYRKRRAGDFGYWGQGTQVTVSS	low polyreactivity
QVQLVESGVGIVQAGGSLRLSCAASGSTYGYNAMGWYRQAPGKESEFVARIRSSGSTTYADSVKRRFTISRDNAMNTVYLLMNSLNPEDNAVYYWAARRYFYLVVYYSWGQCTQVTVSS	high polyreactivity
QVQLVETGGGLVHAGGSLRLSCAASGITFTTNTMGWYRQAPGKERELVAAISSTGGNTFYADSVKGRFTISRDNAKNTVYLQMNSLKPEDTAVYYCSYVPSNARGEYDSWGQGTQVTVSS	low polyreactivity
QVQLVESGGGLVQAGGSLRLSCAASGSILRLYAMGWYRQAPGNERDLVAAITYRGGRTDYADSVKGRFTISRDTAKNTVYLQLNSLKPEDTAVFYCAAGYLPSPRYSTSYLYYYWGQGTQVTVSS	high polyreactivity

Give the reported value of polyreactivity (PSR sort gate) for this record: QVQLVESGGGLVQAGGSLRLSCAASGSIFGGYAMGWYRQAPGKERELVAAISSGGSTYYADSVKGRFTISRDNAKNTVYLQMNSLKPEDTAVYYCATSTYAYRRNSYYYTRPRFGYWGQGTQVTVSS
high polyreactivity

Answer with the recorded polyreactivity (PSR sort gate) for the sequence listed here: QVQLVESGGGLVKAGGSLRLSCAASGFTFTRYAMGWYRQAPGKDRELVAAISSGSRSYYADSVKGRFTISRDNANNTVYLQMNSLKPEDTAVYNCASPDYTYYGHYDSWGQGTQVTVSS
high polyreactivity

Assign polyreactivity (PSR sort gate) to the following record: QVQLVESGGGLVQAGGSLRLSCAASGSIFVLNAMGWYRQAPGKEWELVAVISNIGGRTYYADSVKGRFTISRDNAKNTVYLQLNSLKPEDTAVYSCAAPFTSTFDYWGQVTQVTVSS
low polyreactivity

Give the reported value of polyreactivity (PSR sort gate) for this record: QVQLVESGGGLVQAGGSLRLSCAASGSTFYIYAMGAYRPAPGKERELVARISGSGGSTYYADSVKGRFTISRDNAKNTGYLQMNSLKPEDTAVYYCAADDIYKYYQYYAFPYYRYVYWGHGTQVTVSS
low polyreactivity

Give polyreactivity (PSR sort gate) for the following sequence: QVHLVESGGGLVQAGGSLRLSCAASGSIFGSYAMGWYRQAPGKERELVASITRVDSTNYADSVKGRFTISRDNAKNTVYLQMNSLKPEDTAVYYCNAGKTIDYRDGVGYDHWGQGTQVTVSS
low polyreactivity

Identify measured polyreactivity (PSR sort gate) corresponding to HVQLVESGGGLVQAGGSLRLSCAASGRIFTLYDMGWYRQAPGKERELVAAISNSAGSTYYADSVKGRFTISRDNAKNTVYLQMNSLKPEDTAVYYCAAELWSWGGARDYWGQGTQVTVSS
high polyreactivity

###

- assay_text: yeast display, Sf9 membrane polyspecificity reagent, FACS + sequencing; frameworks hold sequencing errors
attribute_measured: polyreactivity (PSR sort gate)

QVQLVESGGGLVQAGGSLRLSCAASGFIFTYYAMGWYRQAPGKERELVAAISSRGGSTFYADSVKGRFTISRDNAKNTVYLQMNSLKPEDTAVYYCAADKWYAANQGYYYWGQGTQVTVSS	low polyreactivity
QVQLVESGGGLVQAGGSLRLSCAASGSTFRWNAMGWYRQAPGKERELVATITWGGGSTYYADSVKGRFTISRDNAKNTVYLQMNSLKPEDTAVYYCARRKRARYSYYQYNYWGQGTQVTVSS	high polyreactivity
QVQLVESGGGLVQAGGSLRLSCAASGYILPKNTMGWYRQAPGKERESVAVITYSGGSTYYADSVKGRFTISRDNAKNTVYLQMNSLKPEDTAVYYCAADKWYYVRYPTDAYSKFDYWGQGTQVTVSS	low polyreactivity
QVQLVESGGGLVQAGGSLRLSCAASGSTFTNYALGWYRQAPGKEREFVAAITFRGGRTYYADSVKGRFTISRDNAKNTVYLQMNSLKPEDTAVYYCNKRTSPKRFDYWGQGTQVTVSS	high polyreactivity

Query polyreactivity (PSR sort gate) for QVQLVESGGGLVQAGGSLRLSCAASGNTLLSYAMGWYRQAPGKEWELVAAISIDGSTIYADSVKGRFTISRDNAKNTVYLQMNSLKPEDTAVYYCNADRTPFAEMDYWGQGTQVTVSS
low polyreactivity

###

- assay_text: yeast display, Sf9 membrane polyspecificity reagent, FACS + sequencing; frameworks hold sequencing errors
attribute_measured: polyreactivity (PSR sort gate)

QVQLVESGGGLVQAGGRLRLSCAASGRIFPYYAMGWYRQAPGKEREFVAAITSSGGSTYYADSVKGRFTISRDNAKYTVYLQMNSLIPEDSAVYYCFAVRHFGLYAGRPYDYWGQGTQVTVSS	low polyreactivity
QVQLVESGVGLVQAGGSLRLSCAASGRIFAHNAMGWYRQAPGKERELVAAISTGGSTNYADSVKGRFTISRDNAKNTVYLQMNSLKPEDTAVYYCARDAYLPRIADGDGRYELVDYWGQGTQVTVSS	low polyreactivity
QVQLVESGGGLVQAGGSLRLSCAASGSTFDKYAMGWYRQAPGKERELVAAITWGGGSTYYADSVKGRFTISRDNAKNTVYLQMNSLKPEDTAVYYCAAEQGSSVLYDSWGQGTQVTVSS	low polyreactivity
QVQLQESGGGLVQAGGSLRQSCTASGTIYYTSAMGWYRHAPGKDREFVAAIASGSSTNYADSVKGRFTISRDNAKNTVYLKMNSLKPEVTAVYYCAASERVRNIYQYWGQGTQVSVSS	high polyreactivity
QVQLVESGGGLVQAGGSLRLSCAASGGTFEYNAMGWYRQAPGKERELVAAISKSGGRTYYADSVKGRFTISRDNAKNTVYLQMNSLKPEDTAVYYCAKRYVWGQGTQVTVSS	high polyreactivity
QVQLVESGGRLVQAGGSLRLSCAASGSTFYDYAMGWYRQAPGKERELVASIDSGDSTNYADSVKGRFTISRDNAKNTVYLQMNSLKPEDTAVYYCAADYRAPLDYWGQGTQVTVSS	low polyreactivity
QVQLVESGGGLVQAGGSLRLSCAASGFTFGHYVMGWYRQAPGKERELVAAITLSGGGTYYADSVKGRFTISRDNAKNTVYLQMNSLKTEDTAVYYCAAVRRAEEFDYWGQGTQVTVSS	low polyreactivity
QVQLVESGGGLVQAGGSLRFSCAASGLIFRGYTMGWYRQAPGKEREFVAAITRRGTSTYYADSVKGRFTISRDNAKNTVYLQINRLKPEDTAVYYCAARSVSGPRGYPYDYWGQGTQVTVSS	high polyreactivity

Name the recorded polyreactivity (PSR sort gate) of the item QVQLVESGGGLFQAGGSLRLSCAASGRIFHGYDMGWYRQAPGKERELVAAITWRGGSTYADSVKGRFTISRDNGKNTVYLQMNSLKPEDTAVYYCAADTVYYGYFFYYWGQVTQVTVSS in your answer.
high polyreactivity

For the sequence QVQLVESGGGLVQAGGSLRLSCAASGRIFGFYAMGCYRQAPGKERELVAVITYRDGRTYYADSVKGRFTISRDNEKNTVYLQMNSLKPEDTAVYYCARGYQGRLKYESWGQGTQVTVSS , give its reported polyreactivity (PSR sort gate).
low polyreactivity

Entry QVQLVESGGGLVQAGGSLRLSCAASGRTFYQYAMGWYRQAPGKERELVAAISRRGGSTYYADSVKGRFTISRDNAKNTVYLQMNSLKPEDTAVYYCAARVRGKYDYWGQGTQVTVSS needs its polyreactivity (PSR sort gate) filled in; supply it.
high polyreactivity

###

- assay_text: yeast display, Sf9 membrane polyspecificity reagent, FACS + sequencing; frameworks hold sequencing errors
attribute_measured: polyreactivity (PSR sort gate)

# count of solved cases: 4
QVQLVESGGGLVQAGGSLRLSCAASGYTFTIYAMGWSRQAPGKERESVASISIDGSTYYADSVKGRFTISRDNAKNTVYLQMNSLKPEDTAGYYCAADYYYYNPGFDYWGQGTQVTVSS	low polyreactivity
QVQLVESGGGLVQARGSLRLSCAASGSIFYPYAMGWYRQAPGKERELVAGISRSGASTYYADSVKGRFTISRDNAKNTVYLQMNSLKPEDTAVYYCAADDWTRNYWGQGTQVTVSS	low polyreactivity
QVQLVESGGGLVQAGGSLRLSCAASGRIFFWYAMGWYRQAPGKERELVASINWSGVSTYYADSVKGRFTISRDNAKNTVYLQMNSLKPEDTAVYYCNRVRGLYWQRHGYWGQGTQVTVSS	high polyreactivity
QVQLVESGGGLVQAGGSLRLSCAASGSTFSANAMGWYRQAPGKERELVAAISRRGGSTNYADSVKGRFTISRDNAKNTVYLQMNSLKPEDTAVYYCAALYVPRSPFSYDYWGQGTQVTVSS	high polyreactivity

Please look at this sequence and report its polyreactivity (PSR sort gate): QVQHVESGRGLVQAGGSLRLSCAASGSIFTSNAMGWYRQAPGIERELVAAISIGGGTYYADSVKGRFTISRDNAKNTVYLQMNSLKPEDTAVYYCAARVGGRRVRFNYWGQGTQVTVSS
high polyreactivity
